# TARGET OR SYSTEM: NK2 (Homo sapiens, UniProt P21452)
# Sequence (P21452 1-398): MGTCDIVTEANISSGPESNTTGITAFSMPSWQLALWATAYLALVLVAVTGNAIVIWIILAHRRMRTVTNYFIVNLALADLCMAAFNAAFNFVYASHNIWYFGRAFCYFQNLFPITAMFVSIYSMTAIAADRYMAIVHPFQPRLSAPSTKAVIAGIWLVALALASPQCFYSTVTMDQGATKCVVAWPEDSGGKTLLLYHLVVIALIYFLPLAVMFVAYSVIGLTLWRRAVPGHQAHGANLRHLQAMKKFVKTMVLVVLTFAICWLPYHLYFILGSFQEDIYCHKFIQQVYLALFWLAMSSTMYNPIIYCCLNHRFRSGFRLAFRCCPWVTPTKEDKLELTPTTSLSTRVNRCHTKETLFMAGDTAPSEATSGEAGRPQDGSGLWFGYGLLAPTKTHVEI
# ASSAY PROTOCOL: Signal transduction (ST), intracellular Ca++ (FLIPR), NK2
# Type: cell-based
# CONDITION PARAMETERS: read-out: pIC50 NK2 (converted)
We begin with a simple list: items and their reported IC50.
EXPERIMENTAL READOUT: IC50 (µM)

INSERT INTO assay_data (compound, endpoint_value) VALUES
  ('O=C(c1c(Cl)cccc1Cl)N1CCCC(N2CCN([C@H]3CCN(C(=O)c4cc(C(F)(F)F)cc(C(F)(F)F)c4)[C@H](Cc4ccccc4)C3)CC2)C1 (stereo partly drawn)', 6.31),
  ('O=C(c1sccc1COCc1ccccc1)N1CCCC(N2CCN([C@H]3CCN(C(=O)c4cc(C(F)(F)F)cc(C(F)(F)F)c4)[C@H](Cc4ccccc4)C3)CC2)C1 (stereo partly drawn)', 2.51),
  ('O=C(C1CC1)N1CCCC(N2CCN([C@H]3CCN(C(=O)c4cc(C(F)(F)F)cc(C(F)(F)F)c4)[C@H](Cc4ccccc4)C3)CC2)C1 (stereo partly drawn)', 6.31),
  ('COc1ccccc1C(=O)N1CCCC(N2CCN([C@H]3CCN(C(=O)c4cc(C(F)(F)F)cc(C(F)(F)F)c4)[C@H](Cc4ccccc4)C3)CC2)C1 (stereo partly drawn)', 5.01),
  ('O=C(c1cc(C(F)(F)F)cc(C(F)(F)F)c1)N1CC[C@H](N2CCN(C3CCCN(C(CO)c4ccccc4Cl)C3)CC2)C[C@H]1Cc1ccccc1 (stereo partly drawn)', 5.01),
  ('Cc1ccccc1C(=O)N1CCCC(N2CCN([C@H]3CCN(C(=O)c4cc(C(F)(F)F)cc(C(F)(F)F)c4)[C@H](Cc4ccccc4)C3)CC2)C1 (stereo partly drawn)', 3.16),
  ('CC(=O)OCC(c1ccccc1Cl)N1CCCC(N2CCN(C3CCN(C(=O)c4cc(C(F)(F)F)cc(C(F)(F)F)c4)C(Cc4ccccc4)C3)CC2)C1 (stereo not drawn)', 5.01),
  ('Cc1nc(S(=O)(=O)N2CCCC(N3CCN([C@H]4CCN(C(=O)c5cc(C(F)(F)F)cc(C(F)(F)F)c5)[C@H](Cc5ccccc5)C4)CC3)C2)cn1C (stereo partly drawn)', 0.631),
  ('O=C(c1ccccc1F)N1CCCC(N2CCN([C@H]3CCN(C(=O)c4cc(C(F)(F)F)cc(C(F)(F)F)c4)[C@H](Cc4ccccc4)C3)CC2)C1 (stereo partly drawn)', 2.51),
  ('O=C(c1cc(C(F)(F)F)cc(C(F)(F)F)c1)N1CC[C@H](N2CCN(C3CCCN(S(=O)(=O)c4ccc(CO)cc4)C3)CC2)C[C@H]1Cc1ccccc1 (stereo partly drawn)', 0.794),
  ('CC(C)(C)OC(=O)N1CCCC1C(=O)N1CCCC(N2CCN(C3CCN(C(=O)c4cc(C(F)(F)F)cc(C(F)(F)F)c4)C(Cc4ccccc4)C3)CC2)C1 (stereo not drawn)', 2),
  ('O=C(c1cc(COCc2ccccc2)cs1)N1CCCC(N2CCN([C@H]3CCN(C(=O)c4cc(C(F)(F)F)cc(C(F)(F)F)c4)[C@H](Cc4ccccc4)C3)CC2)C1 (stereo partly drawn)', 3.98);

Cited source: patent US7572786B2
